Experiment: Phase I clinical trial: plasma concentrations after weekly intravenous infusion (pharmacokinetics)
Format: in vivo, human
Conditions: human, plasma, iv, 4.5 mg/m^2, Day 1; 4.5 mg/m^2 i.v.; infusion 2 hr; 24 hr after infusion; LLOQ 1 ng/mL
Counter-ions that a name gives are not always drawn.
propertyName: concentration at 24 h (ng/mL)
Give just the numeric value; ng/mL need not be written.

q: Fill in: concentration at 24 h of COc1ccc(N(C)c2nc(C)nc3ccccc23)cc1 [hydrochloride] is ___
a: 1.17

---

Experiment: Phase I clinical trial: plasma concentrations after weekly intravenous infusion (pharmacokinetics)
Type: in vivo, human
Settings: human, plasma, iv, 1 mg/m^2, Day 1; 1.0 mg/m^2 i.v.; infusion 1 hr; 12 hr after infusion; LLOQ 1 ng/mL
Counter-ions that a name gives are not always drawn.
propertyName: concentration at 12 h after end of infusion (ng/mL)
Report the value in ng/mL with no unit label.

q: Which concentration at 12 h after end of infusion is reported for this molecule? COc1ccc(N(C)c2nc(C)nc3ccccc23)cc1 [hydrochloride]
a: 3.62

Origin of measurements: patent US20100087457A1
